Where do these numbers come from? They come from patent US20250313563A1.

- MEASURED_ON: UniProtKB P49840
- Sequence (P49840 whole entry): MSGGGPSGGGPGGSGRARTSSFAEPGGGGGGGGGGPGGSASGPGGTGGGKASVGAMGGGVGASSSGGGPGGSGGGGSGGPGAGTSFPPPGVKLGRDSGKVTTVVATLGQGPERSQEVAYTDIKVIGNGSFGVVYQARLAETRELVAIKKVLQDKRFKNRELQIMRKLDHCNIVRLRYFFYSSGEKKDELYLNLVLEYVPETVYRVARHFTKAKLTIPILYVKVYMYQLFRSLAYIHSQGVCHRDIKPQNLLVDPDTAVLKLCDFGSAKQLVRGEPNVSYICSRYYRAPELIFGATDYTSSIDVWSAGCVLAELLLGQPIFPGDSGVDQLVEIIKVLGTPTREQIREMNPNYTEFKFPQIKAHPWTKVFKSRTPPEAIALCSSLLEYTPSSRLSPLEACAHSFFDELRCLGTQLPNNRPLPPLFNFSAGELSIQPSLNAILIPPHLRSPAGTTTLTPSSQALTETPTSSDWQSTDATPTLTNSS
- EXPERIMENTAL_DETAILS: GSK3α TR-FRET kinase assay
- Format: biochemical
- CONDITION_SUMMARY: 1 nM GSK3α, 4 μM ATP, 30 minute preincubation; read-out: GSK3-A TR-FRET BIOCHEMICAL (TR-FRET); IC50
pIC50: −log10 of the molar value.
Reported pIC50 values for a set of compounds

| COMPOUND | MEASURED_ON | pIC50 |
| --- | --- | --- |
| CC1(C)CC(=O)C2=C(C1)Nc1n[nH]cc1[C@]21CCN(S(=O)(=O)c2cccc(F)c2)C1 | UniProtKB P49840 | ≥ 7.00 |
| Cc1[nH]nc2c1C1(CC3(CCC3)C1)C1=C(CC(C)(C)CC1=O)N2 | UniProtKB P49840 | < 5.30 |
| CC1(C)CC(=O)C2=C(C1)Nc1n[nH]cc1C21COC2(CN(C(=O)C3(F)CCC3)C2)C1 (stereo not drawn) [Compound 947736] | UniProtKB P49840 | ≥ 7.00 |
| CC[C@]1(c2cccc(-c3ccnc4c3CCCC4)c2)C2=C(CN(Cc3ccccc3)C2=O)Nc2n[nH]cc21 | UniProtKB P49840 | 6.00 to 7.00 |
| CC1(C)CC(=O)C2=C(C1)Nc1n[nH]cc1C21CCN(S(=O)(=O)c2c(F)cc(F)cc2F)CC1 | UniProtKB P49840 | ≥ 7.00 |
| CC[C@]1(c2cccc(-c3ccnn3C)c2)C2=C(CC(C)(C)NC2=O)Nc2n[nH]cc21 | UniProtKB P49840 | 6.00 to 7.00 |
| CCC1(c2cccc(C(F)(F)F)c2)C2=C(CC(C(C)(C)C)NC2=O)Nc2n[nH]cc21 (stereo not drawn) [Compound 945923] | UniProtKB P49840 | < 5.30 |
| CC[C@]1(c2cccc(C(F)(F)F)c2)C2=C(Nc3n[nH]cc31)[C@H](C)N(Cc1ccccc1)C2=O | UniProtKB P49840 | < 5.30 |
| Cc1ccccc1C(=O)N1CC2(C1)CC1(CO2)C2=C(CC(C)(C)CC2=O)Nc2n[nH]cc21 (stereo not drawn) | UniProtKB P49840 | ≥ 7.00 |
| Cc1ccc(C(=O)N2CC3(C2)C[C@]2(CO3)C3=C(CC(C)(C)CC3=O)Nc3n[nH]cc32)cc1C | UniProtKB P49840 | 6.00 to 7.00 |
| CCC1(c2cccc(C(F)(F)F)c2)C2=C(CCN(CC(F)(F)F)C2=O)Nc2n[nH]cc21 (stereo not drawn) | UniProtKB P49840 | ≥ 7.00 |
| CC1(C)CC(=O)C2=C(C1)Nc1n[nH]cc1C21COC2(CN(C(=O)C3(C)CC(F)C3)C2)C1 (stereo not drawn) | UniProtKB P49840 | ≥ 7.00 |
| CC1(C)CC(=O)C2=C(C1)Nc1n[nH]cc1C21CCN(S(=O)(=O)c2ccn(-c3ccccc3)n2)CC1 | UniProtKB P49840 | ≥ 7.00 |
| CC1(C)CC(=O)C2=C(C1)Nc1n[nH]cc1C21CC2(CCCC2)C1 | UniProtKB P49840 | ≥ 7.00 |
| CC(=O)N1C[C@]2(C[C@@]3(CO2)C2=C(CC(C)(C)CC2=O)Nc2n[nH]cc23)[C@H]1C | UniProtKB P49840 | ≥ 7.00 |
| CC[C@]1(c2cccc(C(F)(F)F)c2)C2=C(CCN(C(C)C)C2=O)Nc2n[nH]cc21 | UniProtKB P49840 | < 5.30 |
| CCn1ccc(S(=O)(=O)N2CCC3(CC2)C2=C(CC(C)(C)NC2=O)Nc2n[nH]cc23)n1 | UniProtKB P49840 | ≥ 7.00 |
| CCC1(c2cccc(C(F)(F)F)c2)C2=C(Nc3n[nH]cc31)C(C)CNC2=O (stereo not drawn) [Compound 945382] | UniProtKB P49840 | ≥ 7.00 |
| CC[C@]1(c2cccc(N(C)c3ncccn3)c2)C2=C(CC(C)(C)NC2=O)Nc2[nH]ncc21 | UniProtKB P49840 | 6.00 to 7.00 |
| CC1(C)CC(=O)C2=C(C1)Nc1n[nH]cc1[C@]21CCOC2(CCC2)C1 | UniProtKB P49840 | 6.00 to 7.00 |
| COc1ncccc1S(=O)(=O)N1CCC2(CC1)C1=C(CC(C)(C)CC1=O)Nc1n[nH]cc12 | UniProtKB P49840 | ≥ 7.00 |
| CC1(C)CC(=O)C2=C(C1)Nc1n[nH]cc1C21CC2(CCOCC2)C1 | UniProtKB P49840 | ≥ 7.00 |
| CCC1(c2cccc(C(F)(F)F)c2)C2=C(Nc3n[nH]cc31)C(C)NC2=O (stereo not drawn) [Compound 945378] | UniProtKB P49840 | ≥ 7.00 |
| CC[C@]1(c2cccc(-c3cn(C)nc3C)c2)C2=C(CC(C)(C)NC2=O)Nc2n[nH]cc21 | UniProtKB P49840 | ≥ 7.00 |
| CCC1(c2cccc(-c3cn(C)nc3C)c2)C2=C(CC(C)(C)NC2=O)Nc2n[nH]c(C)c21 (stereo not drawn) | UniProtKB P49840 | ≥ 7.00 |
| CC1(C)CC(=O)C2=C(C1)Nc1n[nH]cc1C21COC2(CN(C(=O)CC3CC(F)(F)C3)C2)C1 (stereo not drawn) | UniProtKB P49840 | ≥ 7.00 |
| CCC1(c2cccc(S(C)(=O)=O)c2)C2=C(CC(C)(C)NC2=O)Nc2n[nH]c(C)c21 (stereo not drawn) | UniProtKB P49840 | ≥ 7.00 |
| CC(C)CC(=O)N1CC2(C1)CC1(CO2)C2=C(CC(C)(C)CC2=O)Nc2n[nH]cc21 (stereo not drawn) | UniProtKB P49840 | ≥ 7.00 |
| CCC1(c2cccc(C(F)(F)F)c2)C2=C(Nc3n[nH]cc31)C(C)CNC2=O (stereo not drawn) [Compound 945384] | UniProtKB P49840 | 5.30 to 6.00 |
| CC1(C)CC(=O)C2=C(C1)Nc1n[nH]cc1C21COC2(CN(C(=O)C3CCCCCC3)C2)C1 (stereo not drawn) | UniProtKB P49840 | ≥ 7.00 |
